Source of measurements: the RNAGym collection of RNA variant scans (doi:10.1126/science.aae0568)

B1: tRNA (parent)
chain: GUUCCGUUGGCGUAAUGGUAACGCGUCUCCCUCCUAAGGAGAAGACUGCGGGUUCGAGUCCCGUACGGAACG

# Variants of: B1
# protocol.text: yeast fitness relative to wild type (ratio to wild type); higher = fitter; tRNA-Arg(CCU), competitive growth, 37 C, YPD
This sample holds only a part of the variants without activity.
Recorded yeast fitness, one value per entry.
readout.name: yeast fitness

change: C4G G18A A57C
data.value: ≤ 0.5
//
change: U8C C11U C34G
data.value: ≤ 0.5
//
change: G52A U59A C61A
data.value: ≤ 0.5
//
change: A21C C30G U54C C55G A70G
data.value: ≤ 0.5
//
change: G10C A14C C60A
data.value: ≤ 0.5
//
change: C4U G25A U54A
data.value: ≤ 0.5
//
change: U3G C34G C62U
data.value: ≤ 0.5
//
change: A14U C22G A42U
data.value: ≤ 0.5
//
change: U3A G23C C46A C49A C61G
data.value: ≤ 0.5
//
change: G17C C24A U47A
data.value: ≤ 0.5
//
change: U2G C22A G56A U59G
data.value: ≤ 0.5
//
change: C5U C27G C34G
data.value: ≤ 0.5
//
change: C31A A40U U53G G56C C62G A70C
data.value: ≤ 0.5
//
change: A14C U16A C66U
data.value: ≤ 0.5
//
change: C24G A37G C55U
data.value: ≤ 0.5
//
change: A14C A45C C49G U54C C66U
data.value: ≤ 0.5
//
change: C22G G58C C66A
data.value: ≤ 0.5
//
change: C4U G6C U7A
data.value: ≤ 0.5
//
change: G9C G23C C29U A36C C49G
data.value: ≤ 0.5
//
change: A37G G39A C62U G63A
data.value: ≤ 0.5
//
change: G10C A37U G52A C66U
data.value: ≤ 0.5
//
change: G44C U54C U64A G68A
data.value: ≤ 0.5
//
change: C4G A20U C22G A37C A43C A65G
data.value: ≤ 0.5
//
change: U2A C24G C31U C33G A42C A43U A65U
data.value: ≤ 0.5
//
change: C4U G9C A20G A45G C61A G67A
data.value: ≤ 0.5
//
change: U8C G18C A21C U47A G48C U54G A65C
data.value: ≤ 0.5
//
change: C11U C30A C49U G67U
data.value: ≤ 0.5
//
change: C31G G44C U53C A65U A70G
data.value: ≤ 0.5
//
change: G18A A36C G48A
data.value: ≤ 0.5
//
change: C4G U16G C30U C34A U53G A70C
data.value: ≤ 0.5
//
change: A20C U28C C29A A36U A40U C49G G63C A70U
data.value: ≤ 0.5
//
change: G17A U19A C30U G67A
data.value: ≤ 0.5
//
change: A20G A45C G50A U54G
data.value: ≤ 0.5
//
change: A20U C22G C60A
data.value: ≤ 0.5
//
change: U13A U59C C66A
data.value: ≤ 0.5
//
change: C4A U8A G18A C27U A45U
data.value: ≤ 0.5
//
change: G9C C24U U26G G68U
data.value: ≤ 0.5
//
change: C4U U7A A36G
data.value: ≤ 0.5
//
change: C11A A42U A69U
data.value: ≤ 0.5
//
change: C5A A14G A20G C30A A40U G41C C61G G63C
data.value: ≤ 0.5
